Tested on: BDF1 mice, L1210 leukemia sc, survival T/C
Assay: NCI In Vivo Anticancer Drug Screen. Data for tumor model L1210 Leukemia (subcutaneous) in B6D2F1 (BDF1) mice
Conditions: endpoint: median survival time; dose: 23.0 mg/kg/injection; schedule: Q01DX Z (sc); vehicle: methylcellulose (MC)
Inconclusive results and toxic doses are left out. How the source made its calls: active means survival T/C of 150% or more; inactive means T/C below 125% in these data.
Respond with a class label; see active, inactive

Example entries begin here.
                                   compound  group_label
0  C=CCCCCCCCCC(C)(N)C(=O)O (stereo not given)     inactive
1              O=C(O)c1ccc([N+](=O)[O-])cc1     inactive
2    Oc1cc(CN(CCCl)CCCl)c(O)cc1CN(CCCl)CCCl     inactive
3                CC(C)CSc1nc(N)nc2nc[nH]c12     inactive
4                           CS(=O)(=O)OCCCl     inactive
5  CC(=O)Nc1ccc2nc3ccc(NC(C)=O)cc3[n+](-c3ccccc3)c2c1     inactive
6            O=C(O)CCCc1ccc(N(CCCl)CCCl)cc1     inactive
7  C[C@]12C=CC(=O)C=C1CC[C@@H]1[C@@H]2CC[C@]2(C)OC(=O)CC[C@@H]12     inactive

Input line: Answer briefly: the call reported for CCC(=O)O[C@H]1CC[C@H]2[C@@H]3CC[C@H]4CC(=O)[C@H](C)C[C@]4(C)[C@H]3CC[C@]12C in this assay.
Output line: inactive

Input line: Answer briefly: the call reported for O=C(Nc1ccc(C2=NCCCN2)cc1)c1ccc(C(=O)Nc2ccc(C3=NCCCN3)cc2)cc1 in this assay.
Output line: active

====

System: BDF1 mice, L1210 leukemia sc, survival T/C
Test: NCI In Vivo Anticancer Drug Screen. Data for tumor model L1210 Leukemia (subcutaneous) in B6D2F1 (BDF1) mice
Details: endpoint: median survival time; dose: 65.0 mg/kg/injection; schedule: Q01DX001 (sc); vehicle: saline
Inconclusive results and toxic doses are left out. The calls were made as follows: active = survival T/C of 150% or more; inactive = T/C below 125% in these data.
Respond with a class label; see active, inactive

Example entries begin here.
>>> df
                                   compound  group_label
0                  CCCCCCOP(=O)(N1CC1)N1CC1       active
1  CO[C@@]12[C@H](COC(N)=O)C3=C(C(=O)C(C)=C(N)C3=O)N1C[C@@H]1N[C@@H]12     inactive
2          C=CC(O)CN1CC1 (stereo not given)     inactive
3                 S=P(N1CCOCC1)(N1CC1)N1CC1       active

Next compound, please.
Input line: Answer briefly: the call reported for C=CC(CO)N1CC1 (stereo not given) in this assay.
Output line: inactive

====

Test system: BDF1 mice, L1210 leukemia sc, survival T/C
Test: NCI In Vivo Anticancer Drug Screen. Data for tumor model L1210 Leukemia (subcutaneous) in B6D2F1 (BDF1) mice
Settings: endpoint: median survival time; dose: 108.0 mg/kg/injection; schedule: Q01DX Z (sc); vehicle: water; higher = longer survival
Inconclusive results and toxic doses are left out.
Measured T/C, listed per entry for reference.

Worked examples, 3 compounds total:
compound	test-system	T/C
CCOC(C)C(=O)C=O (centres undefined)	BDF1 mice, L1210 leukemia sc, survival T/C	100 % of control
O=C(Nc1ccc(C2=NCCN2)cc1)c1ccc(C(=O)Nc2ccc(C3=NCCN3)cc2)c(NC(=O)c2ccc(C(=O)Nc3cc(C(=O)Nc4ccc(C5=NCCN5)cc4)ccc3C(=O)Nc3ccc(C4=NCCN4)cc3)cc2)c1	BDF1 mice, L1210 leukemia sc, survival T/C	100 % of control
COc1cc([C@@H]2c3cc4c(cc3[C@H](OC(=O)CCCC(=O)O)[C@H]3COC(=O)[C@H]23)OCO4)cc(OC)c1OC	BDF1 mice, L1210 leukemia sc, survival T/C	118 % of control

Item OCC1OC(n2cnc3cc(Cl)c(Cl)cc32)C(O)C1O (centres undefined) ; assay system BDF1 mice, L1210 leukemia sc, survival T/C; T/C reported as 95 % of control

====

System: BDF1 mice, L1210 leukemia sc, survival T/C
Assay: NCI In Vivo Anticancer Drug Screen. Data for tumor model L1210 Leukemia (subcutaneous) in B6D2F1 (BDF1) mice
Conditions: endpoint: median survival time; dose: 39.0 mg/kg/injection; schedule: Q01DX Z (sc); vehicle: methylcellulose (MC); higher = longer survival
Toxic doses and inconclusive results are not listed.
Measured T/C, listed per entry for reference.

Worked examples, 6 molecules total:
In [3]: df
Out[3]:
                                   molecule            result
0  CCN(CC)CCNc1ccc(C)c2sc3ccccc3c(=O)c12 (tested in a mixture with another compound)  100 % of control
1  C=CCCCCCCCCC(C)(N)C(=O)O (centres undefined)   90 % of control
2              NC(=O)c1ccc([N+](=O)[O-])cc1  100 % of control
3                 CC(C)Sc1nc(N)nc2nc[nH]c12  100 % of control
4  OCC1OC(n2cnc3c(Cl)ncnc32)C(O)C1O (centres undefined)  100 % of control
5  CC(=O)[C@@]1(O)CC[C@H]2[C@@H]3C[C@H](C)C4=CC(=O)C=C[C@]4(C)[C@@]3(F)[C@@H](O)C[C@@]21C  111 % of control

Data point: CS(=O)(=O)OCCCl ; T/C = 90 % of control

Data point: CC[C@H](c1ccc(O)cc1)[C@@H](CC)c1ccc(O)cc1 ; T/C = 100 % of control

Data point: C=C(C)c1ccc(/C=N/NC(N)=S)cc1 ; T/C = 109 % of control

Data point: O=C(Nc1ccc(C2=NCCN2)cc1)c1ccc(NC(=O)c2ccc(C3=NCCN3)cc2)cc1 ; T/C = 95 % of control

Data point: Clc1ncnc2c1ncn2C1CCCO1 (centres undefined) ; T/C = 100 % of control

====

Test system: BDF1 mice, L1210 leukemia sc, survival T/C
Experiment: NCI In Vivo Anticancer Drug Screen. Data for tumor model L1210 Leukemia (subcutaneous) in B6D2F1 (BDF1) mice
Conditions: endpoint: median survival time; dose: 5.0 mg/kg/injection; schedule: Q01DX Z (sc); vehicle: methylcellulose (MC)
Inconclusive results and toxic doses are left out. How the source made its calls: active means survival T/C of 150% or more; inactive means T/C below 125% in these data.
Respond with a class label; see active, inactive

>>> df
                        structure_notation  group_label
0                        Nc1ncnc2[nH]ncc12     inactive
1                 Nc1nc(=S)c2[nH]cnc2[nH]1       active
2  Cn1cnc([N+](=O)[O-])c1Sc1ncnc2nc[nH]c12     inactive

Next compound, please.
Input line: Answer briefly: the call reported for Oc1cc(CN(CCCl)CCCl)c(O)cc1CN(CCCl)CCCl in this assay.
Output line: inactive

====

Measured T/C, listed per entry for reference.
Test system: BDF1 mice, L1210 leukemia sc, survival T/C
Assay: NCI In Vivo Anticancer Drug Screen. Data for tumor model L1210 Leukemia (subcutaneous) in B6D2F1 (BDF1) mice
Conditions: endpoint: median survival time; dose: 3.0 mg/kg/injection; schedule: Q01DX Z (sc); vehicle: saline; higher = longer survival
Toxic doses and inconclusive results are not listed.

Worked examples, 5 compounds total:
compound	test-system	result
COC(=O)[C@@H]1c2cc3c(c(O)c2[C@@H](OC2OC(C)C(OC)C(C)(OC)C2OC)C[C@]1(C)O)C(=O)c1c(O)cc2c(c1C3=O)O[C@H]1O[C@]2(C)[C@H](O)[C@@H](N(C)C)[C@@H]1O (some centres not stated)	BDF1 mice, L1210 leukemia sc, survival T/C	105 % of control
O=C(Nc1ccc(C2=NCCN2)cc1)c1ccc(C(=O)Nc2ccc(C3=NCCN3)cc2)c([N+](=O)[O-])c1	BDF1 mice, L1210 leukemia sc, survival T/C	100 % of control
CCCCN(CCCC)P(=O)(N1CC1)N1CC1	BDF1 mice, L1210 leukemia sc, survival T/C	110 % of control
CN=C(NC)c1ccc(NC(=O)Nc2ccc(NC(=O)Nc3ccc(C(=NC)NC)cc3)cc2)cc1	BDF1 mice, L1210 leukemia sc, survival T/C	100 % of control
O=C(Nc1ccc(C2=NCCN2)cc1)c1ccc(C(=O)Nc2ccc(C3=NCCN3)cc2)cc1	BDF1 mice, L1210 leukemia sc, survival T/C	100 % of control

Data point: CC1CC(C)(O)CC(C(O)CC2CC(=O)NC(=O)C2)C1=O (configuration not stated) ; T/C = 110 % of control

Data point: CCN(CC)P(=O)(N1CC1)N1CC1 ; T/C = 110 % of control
